- Tested on: Bacillus subtilis DB104 (SP-AmyQ fusion secretion)
- protocol.details: AmyQ secretion efficiency, weighted average sort bin (1 = best secretion, 10 = worst) (bin number (weighted average, 1-10)); higher = lower secretion efficiency
Decision: AmyQ secretion efficiency compared against 3; not below it gives label 1, below it gives label 0.

Q) Could you tell me if the measured AmyQ secretion efficiency of MKRSISKRKRCKKITLLTMGGMIASPASAAGT reaches 3 or more?
A) label 1

Q) Could you tell me if the measured AmyQ secretion efficiency of MRSYIKVLTMCFLGLILFVPTQTALADNS reaches 3 or more?
A) label 0

Q) Could you tell me if the measured AmyQ secretion efficiency of MMIGQCVICLSLLVFGTTAAHAEET reaches 3 or more?
A) label 1

Q) Could you tell me if the measured AmyQ secretion efficiency of MKKKIVAGLAVSAVVRRRRAAAPAEAKTI reaches 3 or more?
A) label 1

Q) Could you tell me if the measured AmyQ secretion efficiency of MLCKKMLLFSAIASFPVSAQAKDQ reaches 3 or more?
A) label 1

Q) Could you tell me if the measured AmyQ secretion efficiency of MKVCQKSIVRFLVSLIIGTFVISVPFMANFQSD reaches 3 or more?
A) label 1

Q) Could you tell me if the measured AmyQ secretion efficiency of MKKARRVLLSLGLVFGFSYGAGHVAEAKTK reaches 3 or more?
A) label 0

Q) Could you tell me if the measured AmyQ secretion efficiency of MLKKKWMTGGTKRCLAAGGFSYNAFATEN reaches 3 or more?
A) label 1

Q) Could you tell me if the measured AmyQ secretion efficiency of MTKKGWQLPLVCVLLISGWLAPAASASAQTT reaches 3 or more?
A) label 0

Q) Could you tell me if the measured AmyQ secretion efficiency of MKRTWNVCLTALLSVLLVAGSVPFHAEAAKK reaches 3 or more?
A) label 0

Q) Could you tell me if the measured AmyQ secretion efficiency of MRMLWRSLALCGLALTLAPCAQAATP reaches 3 or more?
A) label 0

Q) Could you tell me if the measured AmyQ secretion efficiency of MNLRKILLSSALSLGMLVSAAPVLVTSS reaches 3 or more?
A) label 1

Q) Could you tell me if the measured AmyQ secretion efficiency of MKKRRRRIAMLILAGIALFVFISPLKSHKT reaches 3 or more?
A) label 1

Q) Could you tell me if the measured AmyQ secretion efficiency of MTMLRKIRRKRKRLCIIPLFAFTVIASGKEV reaches 3 or more?
A) label 1

Q) Could you tell me if the measured AmyQ secretion efficiency of MGLGKKLKKRKRRSFMSLSISLPGVQAAEG reaches 3 or more?
A) label 1

Q) Could you tell me if the measured AmyQ secretion efficiency of MRFTKVVGFLSVLGLAAVFPLTAQAADD reaches 3 or more?
A) label 1

Q) Could you tell me if the measured AmyQ secretion efficiency of MKLAKRVSALTPSTTLAITAKLKEL reaches 3 or more?
A) label 1

Q) Could you tell me if the measured AmyQ secretion efficiency of MTGLKMLSMLTVMIASLFIFSSQALAVQY reaches 3 or more?
A) label 0

Q) Could you tell me if the measured AmyQ secretion efficiency of MKNMSCKLVVSVTLFFSFLDEDPLAHAQNS reaches 3 or more?
A) label 0

Q) Could you tell me if the measured AmyQ secretion efficiency of MKLRKVLTGSVLSLGLLVSASPAFARKR reaches 3 or more?
A) label 1

Q) Could you tell me if the measured AmyQ secretion efficiency of MLTKRLRKKKRRLLGLIAWFPGAAQAEEK reaches 3 or more?
A) label 1

Q) Could you tell me if the measured AmyQ secretion efficiency of MTKKAWFLPLVCVLLISGWLAPAASASVQTT reaches 3 or more?
A) label 0

Q) Could you tell me if the measured AmyQ secretion efficiency of MLKKKWMVGLLAGCLAAGGFSYNTFATEN reaches 3 or more?
A) label 1

Q) Could you tell me if the measured AmyQ secretion efficiency of MKSCKQLIVCSLAAILLLLSLTFIPSVSFAADS reaches 3 or more?
A) label 1

Q) Could you tell me if the measured AmyQ secretion efficiency of MKKRLIAPMLLSAASLAFFAMSGSLQAAAY reaches 3 or more?
A) label 1

Q) Could you tell me if the measured AmyQ secretion efficiency of MKKLLAAGIIGLLTVSIASPSFQAEK reaches 3 or more?
A) label 1

Q) Could you tell me if the measured AmyQ secretion efficiency of MRKNRILALFVLSLGLLSFMVTPTSAASK reaches 3 or more?
A) label 0
